system: DIV17; experiment: qHTS profiling for inhibitors of Plasmodium falciparum proliferation (AID 504749); further: nearly all actives have a fitted effect of over 60% in size; further: potency means the concentration at half of the fitted maximal effect; settings: P. falciparum in erythrocytes, SYBR Green DNA, 72 h; series mostly up to 28.7 µM
Records with an inconclusive call do not appear. Active and inactive are the calls of the source. The call rests on the fitted dose curve; in most records, active means well fitted inhibition curve with a large enough effect; inconclusive means small, poorly fitted or top-dose-only effect; inactive means flat fitted curve, though single readings scatter.
readout.name: Potency

// known answers, use as guide
In [3]: df
Out[3]:
                                   compound    value_observed
0           Cc1nnc(NS(=O)(=O)c2ccc(N)cc2)s1          inactive
1    COc1cccc(N(C)C(=S)Oc2ccc3c(c2)CCCC3)n1          inactive
2              O=C(O)c1cc(=O)[nH]c(=O)[nH]1          inactive
3  CN(C)CCc1c[nH]c2ccc(CS(=O)(=O)N3CCCC3)cc12          inactive
4                             O=S(=O)(O)CCS          inactive
5  CC(C)NCC(O)c1ccc(NS(C)(=O)=O)cc1 (stereo not drawn)          inactive
6  CCC(C)(C)c1ccc(CC(C)CN2C[C@@H](C)O[C@@H](C)C2)cc1 (stereo partly drawn)          inactive
7  CNC(=O)c1cc(Oc2ccc(NC(=O)Nc3ccc(Cl)c(C(F)(F)F)c3)cc2)ccn1  3.01 µM (active)
8     CNS(=O)(=O)Cc1ccc2[nH]cc(CCN(C)C)c2c1          inactive
9  COc1ccc(-c2ccc3cc(C(=O)O)ccc3c2)cc1C12CC3CC(CC(C3)C1)C2          inactive

Check DIV17 data and give Potency for CNC1CCCN(c2c(F)cc3c(=O)c(C(=O)O)cn(C4CC4)c3c2OC)C1 (stereo not drawn) .
inactive

Check DIV17 data and give Potency for CCn1cc(C(=O)O)c(=O)c2cc(F)c(N3CCN(C)CC3)cc21 .
inactive

Check DIV17 data and give Potency for NC(=O)c1cccnc1 .
inactive

Check DIV17 data and give Potency for C1CCC(C(CC2CCCCN2)C2CCCCC2)CC1 (stereo not drawn) .
3.38 µM (active)

Check DIV17 data and give Potency for CCCc1cc(C(N)=S)ccn1 .
inactive

* * *

experiment: qHTS Screen of the MIPE 4.0 Collection Against Ewings Sarcoma (TC32) (AID 1259256); settings: TC32 Ewing sarcoma viability, CellTiter-Glo, 48 h; series mostly up to 45.8 µM; further: nearly all actives have a fitted effect of over 45% in size
Inconclusive results are not listed. The source made the active and inactive calls. The call rests on the fitted dose curve; in most records, active means well fitted inhibition curve with a large enough effect; inconclusive means small, poorly fitted or top-dose-only effect; inactive means no such curve, though single readings can be large or run the other way.
Bench note: report the call from T = active, F = inactive

For orientation, consider the following solved cases.
>>> print(df.to_string())
                                smiles_code  group
0  Cc1nnc(C(=O)NC(C)(C)c2nc(C(=O)NCc3ccc(F)cc3)c(O)c(=O)n2C)o1      F
1  COc1ccc(C(=O)CC(=O)c2ccc(C(C)(C)C)cc2)cc1      T
2  CCn1cc(C(=O)O)c(=O)c2cc(F)c(N3CCNCC3)cc21      F

How was CC1(C)[C@H](C(=O)O)N2C(=O)C[C@H]2S1(=O)=O classified in this test?
F

How was COC(c1ccccc1)(c1ccccc1)[C@H](Oc1nc(C)cc(C)n1)C(=O)O classified in this test?
F

How was O=S(=O)(c1cccc2cnccc12)N1CCCNCC1 classified in this test?
F

Hey, just so you know, these numbers are from PubChem BioAssay (NCATS).
